Quick reference for ΔE Retention Ebony dye with Natural White Hair among some substances
test: Co-application of multi-block peptide with semi-permanent dye (Arianor Ebony), color retention; set-up: species or system human; key: ΔE of peptide sample minus peptide-free control; larger = better retention; details: difference in Delta E between peptide sample and peptide free control after 3 embrocation cycles (about 12 manual shampoos); pH 8.5-9.0; >2 benefit, >4 substantial benefit
measured metric: ΔE Retention Ebony dye with Natural White Hair

substance="KF11-GGG-GHGHQKQHGLGHGHKHGHGHGHGHGK (PNTSQLSTGGGGHGHQKQHGLGHGHKHGHGHGHGHGK; Peptide having affinity for hair) [HC 81]" observed_result=0.6
substance="IB5-KRKRKD (TPPELLHGDPRSKRKRKD; Peptide having affinity for hair)" observed_result=4.49
substance="P-TPPELLHGAPRS-KRKRK-D (PTPPELLHGAPRSKRKRKD; Peptide having affinity for hair) [HC 71]" observed_result=5.2
substance="P-EQISGSLVAAPW-KRKRK-D (PEQISGSLVAAPWKRKRKD; Peptide having affinity for hair) [HC 74]" observed_result=8.5
substance="KF11-EGEGED (NTSQLSTEGEGED; Peptide having affinity for hair)" observed_result=3.6
substance="A5-KRKRKD (EQISGSLVAAPWKRKRKD; Peptide having affinity for hair) [Peptide A5-KRKRKD]" observed_result=5.8
